For each record, write down the corresponding pIC50.
Molecular target: PDE9A2 (Homo sapiens)
Construct: purchased Reaction Biology Corporation, Malvern, Pa
Sequence (O76083 1-533 isoform O76083-2): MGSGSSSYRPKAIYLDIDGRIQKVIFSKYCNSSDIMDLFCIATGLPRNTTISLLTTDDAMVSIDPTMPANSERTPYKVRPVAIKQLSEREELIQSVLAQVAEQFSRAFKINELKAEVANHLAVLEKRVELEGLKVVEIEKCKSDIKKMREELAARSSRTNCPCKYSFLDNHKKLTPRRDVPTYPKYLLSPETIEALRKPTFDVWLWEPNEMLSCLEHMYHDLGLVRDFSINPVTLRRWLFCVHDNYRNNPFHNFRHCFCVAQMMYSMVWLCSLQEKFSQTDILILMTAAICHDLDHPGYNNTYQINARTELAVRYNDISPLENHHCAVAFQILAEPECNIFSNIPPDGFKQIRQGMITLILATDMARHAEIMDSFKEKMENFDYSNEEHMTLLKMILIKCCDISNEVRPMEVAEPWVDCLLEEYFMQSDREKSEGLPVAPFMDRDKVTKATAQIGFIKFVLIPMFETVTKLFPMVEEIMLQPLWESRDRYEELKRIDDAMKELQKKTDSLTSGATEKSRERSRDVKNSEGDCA
Assay: Phosphodiesterase enzyme screening assay, PDE9A2
Format: biochemical
Details: Table 1; 10 concentrations; 4.0 μM cGMP substrate; 1 hour at R.T.; read-out: Band (PDE9A2 IC50)
pIC50: −log10 of the molar value.

Request: Provide pIC50 value for the following molecule: CCS(=O)(=O)N1CC(C)C(c2nn3c(C4CCOCC4)ncc3c(=O)[nH]2)C1 (single isomer, unassigned; (-))
Result: > 6.00

Request: Provide pIC50 value for the following molecule: CC1CN(C(=O)c2ccncc2)CC1c1nn2c(C3CCOCC3)ncc2c(=O)[nH]1 (single isomer, unassigned; (-))
Result: > 6.00

Request: Provide pIC50 value for the following molecule: CC1CN(Cc2cc(Cl)cc(Cl)c2)CC1c1nn2c(C3CCOCC3)ncc2c(=O)[nH]1 (single isomer, unassigned; (+))
Result: > 6.00

Request: Provide pIC50 value for the following molecule: CC1CN(Cc2cc(F)ccc2F)CC1c1nn2c(C3CCOCC3)ncc2c(=O)[nH]1 (single isomer, unassigned; (+))
Result: > 6.00

* * *

Target: PDE1B (Homo sapiens)
Construct: purchased Reaction Biology Corporation, Malvern, Pa
Test: Phosphodiesterase enzyme screening assay, PDE1B
Type: biochemical
Settings: ratio of IC50 values, PDE1B versus PDE9A2; value greater than 1 indicates greater selectivity for PDE9A2
Label fulfilled when PDE1B selectivity (versus PDE9A2) < 200; otherwise not fulfilled.

Request: In the record for CC1CN(Cc2ccc(F)cc2)CC1c1nn2c(-c3ccccc3)ncc2c(=O)[nH]1 (single isomer, unassigned; (+)) , is PDE1B selectivity (versus PDE9A2) less than 200?
Result: fulfilled

Request: In the record for Cc1ccccc1-c1ncc2c(=O)[nH]c(C3CN(Cc4cn5ccccc5n4)CC3C)nn12 (single isomer, unassigned; (+)) , is PDE1B selectivity (versus PDE9A2) less than 200?
Result: not fulfilled

Request: In the record for Cc1cc(F)c(F)cc1-c1ncc2c(=O)[nH]c(C3CN(Cc4cn5ccccc5n4)CC3C)nn12 (single isomer, unassigned; (+)) , is PDE1B selectivity (versus PDE9A2) less than 200?
Result: not fulfilled

Request: In the record for Cc1ccccc1-c1ncc2c(=O)[nH]c(C3CN(Cc4ccc(Cl)cc4)CC3C)nn12 (single isomer, unassigned; (+)) , is PDE1B selectivity (versus PDE9A2) less than 200?
Result: fulfilled

Request: In the record for Cc1cc(F)c(F)cc1-c1ncc2c(=O)[nH]c(C3CN(Cc4ncccn4)CC3C)nn12 (single isomer, unassigned; (+)) , is PDE1B selectivity (versus PDE9A2) less than 200?
Result: fulfilled

Request: In the record for Cc1ccccc1-c1ncc2c(=O)[nH]c(C3CN(Cc4ccccc4)CC3C)nn12 (single isomer, unassigned; (+)) , is PDE1B selectivity (versus PDE9A2) less than 200?
Result: not fulfilled

Request: In the record for CC1CN(Cc2nc3ccccn3n2)CC1c1nn2c(-c3cccc(F)c3)ncc2c(=O)[nH]1 (single isomer, unassigned; (+)) , is PDE1B selectivity (versus PDE9A2) less than 200?
Result: fulfilled

Request: In the record for Cc1ccccc1-c1ncc2c(=O)[nH]c(C3CN(Cc4cnccn4)CC3C)nn12 (single isomer, unassigned; (+)) , is PDE1B selectivity (versus PDE9A2) less than 200?
Result: not fulfilled

Request: In the record for CC1CN(Cc2ccccc2)CC1c1nn2c(-c3cccc(F)c3)ncc2c(=O)[nH]1 (single isomer, unassigned; (+)) , is PDE1B selectivity (versus PDE9A2) less than 200?
Result: fulfilled

Request: In the record for Cc1ccccc1-c1ncc2c(=O)[nH]c(C3CN(Cc4nc5ccccc5[nH]4)CC3C)nn12 (single isomer, unassigned; (+)) , is PDE1B selectivity (versus PDE9A2) less than 200?
Result: not fulfilled

Request: In the record for CC1CN(Cc2ccccn2)CC1c1nn2c(-c3cccc(F)c3)ncc2c(=O)[nH]1 (single isomer, unassigned; (+)) , is PDE1B selectivity (versus PDE9A2) less than 200?
Result: not fulfilled

Request: In the record for Cc1ccncc1-c1ncc2c(=O)[nH]c(C3CN(Cc4ncccn4)CC3C)nn12 (single isomer, unassigned; (+)) , is PDE1B selectivity (versus PDE9A2) less than 200?
Result: fulfilled

Request: In the record for CCC(CC)c1ncc2c(=O)[nH]c(C3CN(Cc4ccc(F)cc4)CC3C)nn12 (single isomer, unassigned; (+)) , is PDE1B selectivity (versus PDE9A2) less than 200?
Result: fulfilled

Request: In the record for Cc1cc(F)c(F)cc1-c1ncc2c(=O)[nH]c(C3CN(Cc4ccc(F)cc4)CC3C)nn12 (single isomer, unassigned; (+)) , is PDE1B selectivity (versus PDE9A2) less than 200?
Result: fulfilled

Request: In the record for Cc1ccncc1-c1ncc2c(=O)[nH]c(C3CN(Cc4cn5ccccc5n4)CC3C)nn12 (single isomer, unassigned; (+)) , is PDE1B selectivity (versus PDE9A2) less than 200?
Result: not fulfilled

Request: In the record for CC1CN(Cc2ccc(F)cc2)CC1c1nn2c(-c3cccc(F)c3)ncc2c(=O)[nH]1 (single isomer, unassigned; (+)) , is PDE1B selectivity (versus PDE9A2) less than 200?
Result: fulfilled

Request: In the record for CC1CN(Cc2ccc(F)cc2)CC1c1nn2c(C3CCCC3)ncc2c(=O)[nH]1 (single isomer, unassigned; (+)) , is PDE1B selectivity (versus PDE9A2) less than 200?
Result: fulfilled

Request: In the record for CC1CN(Cc2cn3ccccc3n2)CC1c1nn2c(C3CCCC3)ncc2c(=O)[nH]1 (single isomer, unassigned; (+)) , is PDE1B selectivity (versus PDE9A2) less than 200?
Result: fulfilled

Request: In the record for CC1CN(Cc2cn3ccccc3n2)CC1c1nn2c(-c3ccc(F)cc3)ncc2c(=O)[nH]1 (single isomer, unassigned; (+)) , is PDE1B selectivity (versus PDE9A2) less than 200?
Result: not fulfilled

Request: In the record for CC1CN(Cc2cnccn2)CC1c1nn2c(-c3ccc(F)cc3)ncc2c(=O)[nH]1 (single isomer, unassigned; (+)) , is PDE1B selectivity (versus PDE9A2) less than 200?
Result: fulfilled

Request: In the record for Cc1ccccc1-c1ncc2c(=O)[nH]c(C3CN(Cc4ccc(F)cc4)CC3C)nn12 (single isomer, unassigned; (+)) , is PDE1B selectivity (versus PDE9A2) less than 200?
Result: not fulfilled

Request: In the record for CC1CN(Cc2ccccc2)CC1c1nn2c(-c3ccc(F)cc3)ncc2c(=O)[nH]1 (single isomer, unassigned; (+)) , is PDE1B selectivity (versus PDE9A2) less than 200?
Result: not fulfilled

* * *

Target: PDE1B (Homo sapiens, UniProt Q01064)
Construct: purchased Reaction Biology Corporation, Malvern, Pa
Sequence (Q01064 whole entry): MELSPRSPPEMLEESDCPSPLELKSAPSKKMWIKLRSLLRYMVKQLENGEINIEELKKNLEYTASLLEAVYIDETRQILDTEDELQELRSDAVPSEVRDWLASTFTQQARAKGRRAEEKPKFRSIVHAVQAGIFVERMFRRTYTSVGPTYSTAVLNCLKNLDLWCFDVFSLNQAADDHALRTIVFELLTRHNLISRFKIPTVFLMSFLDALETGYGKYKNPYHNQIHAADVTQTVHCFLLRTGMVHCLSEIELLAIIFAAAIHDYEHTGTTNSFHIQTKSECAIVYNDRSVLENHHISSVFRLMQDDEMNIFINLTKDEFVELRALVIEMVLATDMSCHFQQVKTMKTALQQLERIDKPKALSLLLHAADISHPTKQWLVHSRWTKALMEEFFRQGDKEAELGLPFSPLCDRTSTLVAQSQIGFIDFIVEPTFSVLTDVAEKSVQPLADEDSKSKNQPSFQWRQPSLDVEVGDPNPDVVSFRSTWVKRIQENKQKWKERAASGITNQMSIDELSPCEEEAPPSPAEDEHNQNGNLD
Assay: Phosphodiesterase enzyme screening assay, PDE1B
Assay type: biochemical
Settings: Table 2; ratio of IC50 values; value greater than 1 indicates greater selectivity for PDE9A2
Hi all, reminder that labels come from PDE1B selectivity (versus PDE9A2), split as L = under 200, M = from 200 up to 400, H = 400 and over

Request: Band assignment needed for Cc1ccnc(CN2CC(C)C(c3nn4c(C5CCOCC5)ncc4c(=O)[nH]3)C2)n1 (single isomer, unassigned; (+)) please.
Result: M

Request: Band assignment needed for CC1CN(Cc2ncc(C3CC3)cn2)CC1c1nn2c(C3CCOCC3)ncc2c(=O)[nH]1 (single isomer, unassigned; (+)) please.
Result: H

Request: Band assignment needed for CC1CN(Cc2ncc(Cl)cn2)CC1c1nn2c(C3CCOCC3)ncc2c(=O)[nH]1 (single isomer, unassigned; (+)) please.
Result: L

Request: Band assignment needed for CC1CN(Cc2nccc(N(C)C)n2)CC1c1nn2c(C3CCOCC3)ncc2c(=O)[nH]1 (single isomer, unassigned; (+)) please.
Result: L

Request: Band assignment needed for CC1CN(Cc2ncc(N3CCCC3)cn2)CC1c1nn2c(C3CCOCC3)ncc2c(=O)[nH]1 (single isomer, unassigned; (+)) please.
Result: H

Request: Band assignment needed for COc1cnc(CN2CC(C)C(c3nn4c(C5CCOCC5)ncc4c(=O)[nH]3)C2)nc1 (single isomer, unassigned; (+)) please.
Result: L

Request: Band assignment needed for CC1CN(Cc2ncc(C#N)cn2)CC1c1nn2c(C3CCOCC3)ncc2c(=O)[nH]1 (single isomer, unassigned; (+)) please.
Result: L

Request: Band assignment needed for Cc1cnc(CN2CC(C)C(c3nn4c(C5CCOCC5)ncc4c(=O)[nH]3)C2)nc1 (single isomer, unassigned; (+)) please.
Result: L

Request: Band assignment needed for Cc1cc(C)nc(CN2CC(C)C(c3nn4c(C5CCOCC5)ncc4c(=O)[nH]3)C2)n1 (single isomer, unassigned; (+)) please.
Result: H

Request: Band assignment needed for CC1CN(Cc2ncc(F)cn2)CC1c1nn2c(C3CCOCC3)ncc2c(=O)[nH]1 (single isomer, unassigned; (+)) please.
Result: M
